Provenance of the data: PubChem BioAssay AID2551

# Assay System: Nuclear receptor ROR-gamma (Mus musculus)
# Assay Overview: qHTS for inhibitors of ROR gamma transcriptional activity; further: nearly all actives have a fitted effect of over 60% in size
# Test Parameters: Drosophila S2 Gal4-RORgamma UAS-luciferase reporter, 20 h; series mostly up to 53.6 µM
The whole screen tested about 310,000 compounds, of which about 17,000 (5.5%) were called active. Not shown: some 11% with an inconclusive outcome. The call rests on the fitted dose curve; in most records, active means well fitted inhibition curve with a large enough effect; inconclusive means small, poorly fitted or top-dose-only effect, or effect the other way; inactive means no such curve, though single readings can be large or run the other way. Shown is part of a subset that was picked to be rich in actives.
Would you mind answering with one of these outcomes? true = active, false = inactive

COc1ccc(N(C(=O)c2snc(C(N)=O)c2N)C(C(=O)NC2CCCC2)c2ccco2)cc1OC (centres undefined)
false

Query: Hello, I am checking results. What call was entered for `C=CCCN(Cc1ccccc1)S(=O)(=O)c1ccccc1Br` ?
Response: false

Query: Hello, I am checking results. What call was entered for COCn1c(C(O)c2ccccc2)cc2ccccc21 (centres undefined) ?
Response: false

Query: Hello, I am checking results. What call was entered for `Cc1ccc2c(c1)c1ncn(CCC3=CCCCC3)c(=O)c1n2C` ?
Response: false

###

# Assay System: Nuclear receptor ROR-gamma (Mus musculus)
# Assay Overview: qHTS for inhibitors of ROR gamma transcriptional activity; further: nearly all actives have a fitted effect of over 60% in size
# Test Parameters: Drosophila S2 Gal4-RORgamma UAS-luciferase reporter, 20 h; series mostly up to 53.6 µM
# From the text: NIH Molecular Libraries Probe Production Network [MLPCN] NIH Chemical Genomics Center [NCGC] […] Small molecule inhibitors of ROR gamma activity are detected by a decrease in luciferase reporter activity. […]
In all, about 310,000 compounds went through this assay and about 17,000 (5.5%) were called active. Roughly 11% stayed inconclusive and do not appear here. Calls follow the shape of the dose curve; as a rule, active = well fitted inhibition curve with a large enough effect; inconclusive = small, poorly fitted or top-dose-only effect, or effect the other way; inactive = no such curve, though single readings can be large or run the other way. What follows is part of a selection rich in actives, with near analogues and random picks from the rest.
Would you mind answering with one of these outcomes? active, inactive

Please review the entries below; each comes with its answer.
COc1ccc(S(=O)(=O)N2CCOCC2)cc1C(=O)NC1CCCCC1
inactive
S=C(NC1CCCCC1)NN1CCOCC1
active
CC(NC(=S)Nc1ccccc1)C(c1cccs1)N1CCOCC1 (stereo unspecified)
active
COc1ccc(NC(=O)C2CCN(S(=O)(=O)c3ccc4[nH]c(=O)oc4c3)CC2)c(OC)c1
inactive
O=C(NNC(=O)C(O)c1ccccc1)NC1CCCCC1 (stereo unspecified)
inactive

Query: Hello, I am checking results. What call was entered for CC(NC(=S)NC1CCCCC1)C(c1ccccc1)N1CCOCC1 (stereo unspecified) ?
Response: active

###

# Assay System: Nuclear receptor ROR-gamma (Mus musculus) (UniProt P51450)
# Sequence (P51450 whole entry, looked up): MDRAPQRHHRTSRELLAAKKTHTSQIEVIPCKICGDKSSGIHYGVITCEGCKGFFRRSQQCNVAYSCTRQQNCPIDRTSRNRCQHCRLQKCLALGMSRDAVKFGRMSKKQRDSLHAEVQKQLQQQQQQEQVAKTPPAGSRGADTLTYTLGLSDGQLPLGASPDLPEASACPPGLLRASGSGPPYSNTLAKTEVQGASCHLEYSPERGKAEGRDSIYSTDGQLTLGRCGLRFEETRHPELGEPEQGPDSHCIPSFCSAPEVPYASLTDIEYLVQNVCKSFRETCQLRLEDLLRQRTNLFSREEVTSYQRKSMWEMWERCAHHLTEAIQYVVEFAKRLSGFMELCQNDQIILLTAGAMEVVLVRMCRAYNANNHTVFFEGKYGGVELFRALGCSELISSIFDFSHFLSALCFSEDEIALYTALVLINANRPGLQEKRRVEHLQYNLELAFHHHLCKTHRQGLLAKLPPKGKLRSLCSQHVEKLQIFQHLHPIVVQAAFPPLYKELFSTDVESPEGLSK
# Assay Overview: qHTS for inhibitors of ROR gamma transcriptional activity; further: nearly all actives have a fitted effect of over 60% in size
# Test Parameters: Drosophila S2 Gal4-RORgamma UAS-luciferase reporter, 20 h; series mostly up to 53.6 µM
The campaign covered roughly 310,000 compounds. About 17,000 (5.5%) were called active. Another 11% or so got no clear call; they are omitted. Calls follow the shape of the dose curve; as a rule, active = well fitted inhibition curve with a large enough effect; inconclusive = small, poorly fitted or top-dose-only effect, or effect the other way; inactive = no such curve, though single readings can be large or run the other way. Many of the other results were omitted from the sample, so actives are more common in it than they were.
Would you mind answering with one of these outcomes? 1 (yes) for active, 0 (no) for inactive

Please review the entries below; each comes with its answer.
Cc1ccccc1C(=O)Nc1ccc(N2CCCCCC2)cc1
0 (no)
Cc1ccc(OCCCC(=O)Nc2ccc(N3CCOCC3)cc2)cc1
0 (no)
O=C(COc1ccc([N+](=O)[O-])cc1)Nc1ccc(N2CCCC2)cc1
0 (no)

Query: Hello, I am checking results. What call was entered for `Cc1ccc(CNS(=O)(=O)c2ccc3c(c2)N(C)CCO3)cc1` ?
Response: 0 (no)

Query: Hello, I am checking results. What call was entered for `Cc1ccccc1C(=O)NC(=S)Nc1ccc(N2CCN(C(=O)c3ccccc3)CC2)cc1` ?
Response: 1 (yes)

Query: Hello, I am checking results. What call was entered for N#Cc1cc([N+](=O)[O-])ccc1NCC1CCCO1 (stereo unspecified) ?
Response: 0 (no)

###

# Assay System: Nuclear receptor ROR-gamma (Mus musculus) (UniProt P51450)
# Assay Overview: qHTS for inhibitors of ROR gamma transcriptional activity; further: nearly all actives have a fitted effect of over 60% in size; further: potency means the concentration at half of the fitted maximal effect
# Test Parameters: Drosophila S2 Gal4-RORgamma UAS-luciferase reporter, 20 h; series mostly up to 53.6 µM
Hit rate of the full screen: of about 310,000 compounds, about 17,000 (5.5%) were called active. About 11% were inconclusive and are not listed. The sample as a whole holds a higher share of actives than the screen did.
Reported Property: Potency

CCc1ccc(OCC(=O)NCC(c2ccc(Cl)cc2)N2CCCCC2)cc1 (stereo unspecified)
inactive
CN(c1ccccc1)S(=O)(=O)c1cccc(NC(=O)Cc2c(F)cccc2Cl)c1
inactive
CCOc1ccc(N(CC(=O)Nc2cccc(OC)c2)S(C)(=O)=O)cc1
inactive
CSc1cccc(NC(=S)N(C(C)C)C(C)c2ccccn2)c1 (stereo unspecified)
22.4 µM (active)
CCCCCOC(=O)NCCOC(=O)Nc1ccc(C(=O)OCC)cc1
inactive

Below are 6 compounds. Give each one its Potency.
1. CCc1ccc(NC(=O)CN2CCC(C(=O)c3ccc(OC)cc3)CC2)cc1
2. O=C(c1cc(COc2ccc(F)c(F)c2)on1)N1CCOCC1
3. CSc1cccc(NC(=S)N(Cc2ccccc2)Cc2ccccn2)c1
4. CC1CCC(NC(=O)CN(C)S(=O)(=O)c2ccc3c(c2)c(=O)n(C)c(=O)n3C)CC1 (stereo unspecified)
5. O=C(N/N=C/c1cccnc1)c1ccc(NC(=O)c2ccc(F)cc2)cc1
6. CN(C(=O)c1ccno1)c1nnc(-c2cccnc2)s1

Response:
1: inactive; 2: inactive; 3: 6.31 µM (active); 4: inactive; 5: inactive; 6: inactive

Below are 6 compounds. Give each one its Potency.
1. CCOC(=O)c1ccc(NC(=O)c2nc[nH]c2C(=O)N[C@@H](CCCCNC(=O)OC(C)(C)C)C(=O)OC(C)(C)C)cc1
2. C=CCC1(C#N)C(=S)NC(C)=C(C(=O)OCC)C1c1ccccc1 (stereo unspecified)
3. CSc1cccc(NC(=O)CSc2ccccc2)c1
4. CN(c1ccccc1)S(=O)(=O)c1cc(C(=O)Nc2nc3ccccc3[nH]2)ccc1Cl
5. CCOC(=O)C1=C(C)NC(SC)=NC1c1ccccc1 (stereo unspecified)
6. C=CCOC(=O)C1=C(C)OC(N)=C(C#N)C1c1ccc(F)cc1 (stereo unspecified)

Response:
11.2 µM (active)
10 µM (active)
inactive
2.82 µM (active)
inactive
inactive

###

# Assay System: Nuclear receptor ROR-gamma (Mus musculus) (UniProt P51450)
# Assay Overview: qHTS for inhibitors of ROR gamma transcriptional activity; further: nearly all actives have a fitted effect of over 60% in size
# Test Parameters: Drosophila S2 Gal4-RORgamma UAS-luciferase reporter, 20 h; series mostly up to 53.6 µM
Among all 310,000 compounds or so, about 17,000 (5.5%) were called active. Not shown: some 11% with an inconclusive outcome. The call rests on the fitted dose curve; in most records, active means well fitted inhibition curve with a large enough effect; inconclusive means small, poorly fitted or top-dose-only effect, or effect the other way; inactive means no such curve, though single readings can be large or run the other way. This excerpt belongs to a sample that is enriched for actives.
Would you mind answering with one of these outcomes? class 1 (active), class 0 (inactive)

Please review the entries below; each comes with its answer.
Cc1cc(N2CCN(C)CC2)nc2ccc(NC(=S)N3CCOCC3)cc12
class 0
CCn1c2ccccc2c2cc(NC(=S)N3CCOCC3)ccc21
class 1
CCn1c2ccccc2c2cc(NC(=O)CNC)ccc21
class 0
COc1cccc2sc(N(CCCN(C)C)C(=O)CCS(=O)(=O)c3ccccc3)nc12
class 1
Cc1cc(C)c2nc(N(CCN(C)C)C(=O)/C=C/c3cccs3)sc2c1
class 0

Now, please, on to the next compound.
Query: Hello, I am checking results. What call was entered for `Cc1cccc2sc(N(CCCN(C)C)C(=O)CCS(=O)(=O)c3ccccc3)nc12` ?
Response: class 1

###

# Assay System: Nuclear receptor ROR-gamma (Mus musculus)
# Assay Overview: qHTS for inhibitors of ROR gamma transcriptional activity; further: nearly all actives have a fitted effect of over 60% in size
# Test Parameters: Drosophila S2 Gal4-RORgamma UAS-luciferase reporter, 20 h; series mostly up to 53.6 µM
In all, about 310,000 compounds went through this assay and about 17,000 (5.5%) were called active. About 11% were inconclusive and are not listed. The call rests on the fitted dose curve; in most records, active means well fitted inhibition curve with a large enough effect; inconclusive means small, poorly fitted or top-dose-only effect, or effect the other way; inactive means no such curve, though single readings can be large or run the other way. Only a selection was taken, and actives are over-represented in it overall.
Would you mind answering with one of these outcomes? Y for active, N for inactive

Query: Hello, I am checking results. What call was entered for NC(=O)C1CCCN(CC(=O)N2CCN(c3ccccc3)CC2)C1 (centres undefined) ?
Response: N

###

# Assay System: Nuclear receptor ROR-gamma (Mus musculus) (UniProt P51450)
# Assay Overview: qHTS for inhibitors of ROR gamma transcriptional activity; further: nearly all actives have a fitted effect of over 60% in size; further: potency means the concentration at half of the fitted maximal effect
# Test Parameters: Drosophila S2 Gal4-RORgamma UAS-luciferase reporter, 20 h; series mostly up to 53.6 µM
Among all 310,000 compounds or so, about 17,000 (5.5%) were called active. Another 11% or so got no clear call; they are omitted. For the sample, actives were picked, then their nearest neighbours and some compounds at random.
Reported Property: Potency

Example cases with answers are listed next.
CCCn1c(C(Cc2ccccc2)NC(=O)COC)nc2ccccc21 (stereo unspecified)
inactive
CC(=O)OCC(NC(=O)C(Cc1ccccc1)NC(=O)OC(C)(C)C)C1OC(n2ccc(=O)[nH]c2=O)C(OC(C)=O)C1OC(C)=O (stereo unspecified)
inactive
COc1ccc(NC(=O)/C(Cl)=C(/Cl)S(=O)Cc2ccc(C)cc2)cn1 (stereo unspecified)
inactive
CCN(CC)c1ccc(C(=O)N/N=C(\C)c2cccc(OC)c2)cc1
inactive
CC(=O)N1CCN(CC(c2ccccc2)c2ccccc2)CC1
inactive

Below are 5 molecules. Give each one its Potency.
1. Cn1c(SCC(=O)N2CCCC2)nnc1-c1ccc2c(c1)OCO2
2. COc1ccc(C(=O)Nc2ccc(NC(=O)C(C)C)nc2)cc1
3. C/C(=N\Nc1ccc(S(N)(=O)=O)cc1[N+](=O)[O-])c1cccs1
4. C/C(=N\NS(=O)(=O)c1ccc(Br)cc1)c1cccs1
5. C/C(=N\Nc1nc2ccccc2[nH]1)c1cccs1

Response:
["inactive", "inactive", "inactive", "inactive", "10 µM (active)"]

Query: Which Potency value is on record for `CC(=O)N/C(=N/c1nc(C)cc(C)n1)Nc1ccc(F)cc1F` ?
Response: inactive
